Experimental System: hNTS2 receptor (Homo sapiens, UniProt O95665)
Construct: membranes prepared from them
Sequence (O95665 whole entry): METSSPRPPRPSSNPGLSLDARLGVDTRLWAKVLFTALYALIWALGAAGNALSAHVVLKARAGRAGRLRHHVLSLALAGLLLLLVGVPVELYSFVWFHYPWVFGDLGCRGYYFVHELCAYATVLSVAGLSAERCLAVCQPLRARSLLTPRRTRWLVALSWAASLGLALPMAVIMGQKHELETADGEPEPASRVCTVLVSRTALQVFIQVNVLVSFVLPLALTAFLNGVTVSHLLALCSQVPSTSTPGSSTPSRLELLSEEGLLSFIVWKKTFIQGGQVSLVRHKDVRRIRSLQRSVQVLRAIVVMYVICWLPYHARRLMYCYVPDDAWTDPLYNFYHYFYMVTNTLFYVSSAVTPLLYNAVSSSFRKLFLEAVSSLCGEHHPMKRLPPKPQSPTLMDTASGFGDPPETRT
Protocol Summary: Competitive radioligand binding assay on the hNTS2 receptor
Experimental Setup: ratio IC50 for NTS1 : IC50 for NTS2
*1 amine or outer side, *2 acyl side, *3 side chain or, on linkers, in order; H or OH if unused. Where a SMILES comes first, the peptide text is derived from it. Bridges are numbered along the chain shown (N, C = ends). [ ]: non-standard residue; d: D form. ξ: configuration not given here. ξαMeNle(6-ylidene) = CC(CCCC=[*:3])(N[*:1])C(=O)[*:2]; AllylGly = C=CC[C@H](N)C(=O)O
Recorded Selectivity values for a group of compounds are listed next.
Value Type: Selectivity

compound="COc1ccc(C[C@H](NC(=O)[C@@H]2CC=CC[C@H](N)C(=O)N[C@@H](CCCCN)C(=O)N[C@@H](CCCCN)C(=O)N2)C(=O)N[C@@H](CC(C)C)C(=O)O)cc1 [compound 75, c[G(All)KKG(All)]Y(OMe)L] (H-[AllylGly]KK[AllylGly]Y(Me)L-OH; staple 1-4)" recorded_value=>1159
compound="CC(C)C[C@H](NC(=O)[C@H](Cc1ccc(O)cc1)NC(=O)[C@@H]1CC(=O)NCCCC[C@H](N)C(=O)N[C@@H](CCCCN)C(=O)N[C@@H](CCCCN)C(=O)N1)C(=O)O [compound 97, c[KKKD]YL] (H-KKKDYL-OH; lactam 1-4)" recorded_value=>98.4
compound="CC(C)C[C@H](NC(=O)[C@H](Cc1ccc(O)cc1)NC(=O)C1(C)CCCC=CCCCC(C)(N)C(=O)N[C@@H](CCCCN)C(=O)N[C@@H](CCCCN)C(=O)N1)C(=O)O (stereo partly shown) [compound 93] (H-[ξαMeNle(6-ylidene)]KK[ξαMeNle(6-ylidene)]YL-OH; staple 1-4)" recorded_value=>2907
compound="CC(C)[C@H](NC(=O)[C@H](Cc1ccc(O)cc1)NC(=O)[C@@H]1CC=CC[C@H](N)C(=O)N[C@@H](CCCCN)C(=O)N[C@@H](CCCCN)C(=O)N1)C(=O)O [compound 33, c[G(All)KKG(All)]YV] (H-[AllylGly]KK[AllylGly]YV-OH; staple 1-4)" recorded_value=>1.25
